Each entry below carries its recorded IC50.
- System: H1299 cells
- assay-name: Cell viability assay (MTT, 72 h), H1299
- Format: cell-based
- setup-conditions: Homo sapiens, NCI-H1299, proliferation, mean ± s.d. (n = 3)
Respond with the bare value in µM.

// worked examples, IC50 included
Which value of IC50 has been reported for COc1c(NS(=O)(=O)c2ccc(Cl)cc2)cc2c(c1O)C(=O)c1ccccc1C2=O [Compound 14c] in the records?
26.9

# lookup: IC50 of "O=C1c2ccccc2C(=O)c2c1cc(NS(=O)(=O)c1c(Cl)cc(Cl)cc1Cl)c(O)c2O"
6.2

What value of IC50 has been recorded for this entry: "O=C1c2ccccc2C(=O)c2c1cc(NS(=O)(=O)c1ccc(Br)cc1)c(O)c2O"
28.1

Please examine the following record next.
Endpoint output: IC50 of "N#Cc1ccc(S(=O)(=O)Nc2cc3c(c(O)c2O)C(=O)c2ccccc2C3=O)cc1" . Value?
26.3

Source of measurements: paper PMC6429356
